target: hCB1 (Homo sapiens); experiment: bioSensAll ebBRET signaling profiling, hCB1; format: cell-based; parameters: host or cells: HEK293SL cells, transient PEI transfection; settings: Barr2+GRK2 biosensor; Log [Compound] (M) -10.5529
Sequence (P21554 whole entry): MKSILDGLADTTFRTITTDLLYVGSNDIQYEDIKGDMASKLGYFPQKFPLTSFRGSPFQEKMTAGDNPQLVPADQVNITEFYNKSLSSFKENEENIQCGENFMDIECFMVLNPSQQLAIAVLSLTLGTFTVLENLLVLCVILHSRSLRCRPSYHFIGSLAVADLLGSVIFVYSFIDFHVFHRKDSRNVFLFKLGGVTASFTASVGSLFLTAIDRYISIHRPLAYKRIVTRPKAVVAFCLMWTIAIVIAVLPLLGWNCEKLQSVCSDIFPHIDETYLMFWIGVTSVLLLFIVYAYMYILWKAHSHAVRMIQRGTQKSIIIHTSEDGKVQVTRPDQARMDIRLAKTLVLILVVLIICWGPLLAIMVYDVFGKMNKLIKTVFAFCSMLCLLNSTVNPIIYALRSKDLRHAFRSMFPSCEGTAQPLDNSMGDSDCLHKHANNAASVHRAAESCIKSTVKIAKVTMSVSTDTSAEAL
Condition met if Barr2+GRK2 hCB1 response is below -40. Condition not met if not; exact matches included in Condition not met.

Exercise: Is Barr2+GRK2 hCB1 response strictly under -40 for the entry Cc1c(C(=O)OCC2CSc3ccccc3O2)cnn1Cc1ccccc1 (stereo not drawn) [‘7800] ?
Solution: Condition met

Exercise: Please state whether Barr2+GRK2 hCB1 response is below -40 for Cc1nn(Cc2ccc(Cl)cc2)c(C)c1C(=O)OCC1CSc2ccccc2O1 (stereo not drawn) [‘5463]
Solution: Condition not met

Exercise: Lab note: confirm whether the reported Barr2+GRK2 hCB1 response for this molecule is below -40, equality not counting. molecule: Brc1cc2c(cc1Cc1noc(-c3cnn(CC4CC4)c3)n1)OCO2 [‘5424]
Solution: Condition met

Exercise: Does this molecule meet the criterion Barr2+GRK2 hCB1 response < -40? Cc1nc(CC2CC2)oc1-c1nc(Cc2cc3c(cc2Br)OCO3)no1 [‘7019]
Solution: Condition not met

Exercise: Determine whether this molecule shows Barr2+GRK2 hCB1 response lower than -40 (ties excluded): Cn1nc(-c2nnc(C(C)(C)Oc3ccc(Cl)cc3)o2)c2ccccc2c1=O [‘0450]
Solution: Condition not met

Exercise: Take the molecule Cn1nc(-c2nnc(C(C)(C)Oc3ccc(C(F)(F)F)cc3)o2)c2ccccc2c1=O [‘2153] and say whether its Barr2+GRK2 hCB1 response is less than -40.
Solution: Condition not met
